Test system: NCI1975D (lung)
Assay: growth inhibition of human tumour cells, 72 h incubation
Assay type: cell-based
Conditions: Homo sapiens; 72 hours of incubation
pIC50: −log10 of the molar value.
Observed Property: pIC50

INSERT INTO assay_data (molecule, tgt, observed_property, readout_number) VALUES
  ('CCCCCC(O)C(=O)OCC(COC(=O)C(O)CCCCC)OC(=O)C(O)CCCCC (stereo not shown) [TGM0, 1,2,3-tri(2′-hydroxyheptanoyl)glycerol]', 'NCI1975D (lung)', 'pIC50', 3.49);

---

Tested on: SF767 (glioma)
Assay: growth inhibition of human tumour cells, 72 h incubation
Type: cell-based
Settings: Homo sapiens, SF767; 72 hours of incubation
Observed Property: IC50 (µM)

INSERT INTO assay_data (molecule, readout_number) VALUES
  ('CCCCCC(O)C(=O)OCC(COC(=O)C(O)CCCCC)OC(=O)C(O)CCCCC (stereo not shown) [TGM0, 1,2,3-tri(2′-hydroxyheptanoyl)glycerol]', 278);

---

Target: Glycogen Branching Enzyme 1 (GBE1) variant Y329S (Homo sapiens, UniProt Q04446, Y329S)
Sequence (Q04446 1-702 Y329S): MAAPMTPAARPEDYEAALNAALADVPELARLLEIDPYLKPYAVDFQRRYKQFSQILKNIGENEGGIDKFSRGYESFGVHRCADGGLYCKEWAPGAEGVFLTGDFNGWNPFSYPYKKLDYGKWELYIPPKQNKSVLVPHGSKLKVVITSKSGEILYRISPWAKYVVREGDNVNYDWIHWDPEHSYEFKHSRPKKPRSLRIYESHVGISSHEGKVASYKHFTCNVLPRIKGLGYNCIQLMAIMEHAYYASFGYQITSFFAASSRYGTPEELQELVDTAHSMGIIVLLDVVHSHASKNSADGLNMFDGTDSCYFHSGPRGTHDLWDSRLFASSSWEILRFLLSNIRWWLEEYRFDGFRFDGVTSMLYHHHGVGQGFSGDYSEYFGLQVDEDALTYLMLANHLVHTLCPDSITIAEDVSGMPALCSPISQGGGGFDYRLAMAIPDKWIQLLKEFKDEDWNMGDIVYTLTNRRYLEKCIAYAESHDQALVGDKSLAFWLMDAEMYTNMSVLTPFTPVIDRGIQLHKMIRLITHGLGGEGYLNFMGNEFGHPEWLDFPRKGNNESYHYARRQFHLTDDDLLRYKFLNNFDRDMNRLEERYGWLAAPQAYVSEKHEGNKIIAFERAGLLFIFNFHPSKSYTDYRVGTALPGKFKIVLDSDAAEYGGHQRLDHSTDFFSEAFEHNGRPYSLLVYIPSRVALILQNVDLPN
Experiment: activity of purified enzyme GBE1 Y329S in the presence of PC membranes
Assay type: biochemical
Conditions: PC membranes with TGM 20 mol %; non-mutated enzyme = 100% (0.76 nmol/min · ng protein)
Excerpt: It has been possible to observe that the molecules of the present invention are capable of regulating the activity of the Glycogen Branching Enzyme 1 (GBE1) and its joining to membranes (Table 9). Alterations in this enzyme give rise to a neurodegenerative process known as APBD (Kakhlon et al., 2013). It has been described that a modification of tyrosine in position 329 of this enzyme (Y329S) causes a reduction in the activity of GBE1. […]
Observed Property: Activity Y329S (%)

INSERT INTO results (compound, measurement_units, readout_number) VALUES
  ('CCCCCCCCC=CCCCCCCC(O)C(=O)OCC(COC(=O)C(O)CCCCCCC=CCCCCCCCC)OC(=O)C(O)CCCCCCC=CCCCCCCCC (centres unmarked) [TGM1]', '%', 7),
  ('CCC=CCC=CCC=CCC=CCC=CCC=CCC(O)C(=O)OCC(COC(=O)C(O)CC=CCC=CCC=CCC=CCC=CCC=CCC)OC(=O)C(O)CC=CCC=CCC=CCC=CCC=CCC=CCC (centres unmarked) [TGM6]', '%', 5),
  ('CCC=CCC=CCC=CCC=CCC=CCCC(O)C(=O)OCC(COC(=O)C(O)CCC=CCC=CCC=CCC=CCC=CCC)OC(=O)C(O)CCC=CCC=CCC=CCC=CCC=CCC (centres unmarked) [TGM5]', '%', 16),
  ('CCCCCC(O)C(=O)OCC(COC(=O)C(O)CCCCC)OC(=O)C(O)CCCCC (centres unmarked) [TGM0, 1,2,3-tri(2′-hydroxyheptanoyl)glycerol]', '%', 20),
  ('CCCCCC=CCC=CCC=CCC=CCCC(O)C(=O)OCC(COC(=O)C(O)CCC=CCC=CCC=CCC=CCCCCC)OC(=O)C(O)CCC=CCC=CCC=CCC=CCCCCC (centres unmarked) [TGM4]', '%', 4),
  ('CCCCCC=CCC=CCC=CCCCC(O)C(=O)OCC(COC(=O)C(O)CCCC=CCC=CCC=CCCCCC)OC(=O)C(O)CCCC=CCC=CCC=CCCCCC (centres unmarked) [TGM3G]', '%', 9),
  ('CCC=CCC=CCC=CCCCCCCC(O)C(=O)OCC(COC(=O)C(O)CCCCCCC=CCC=CCC=CCC)OC(=O)C(O)CCCCCCC=CCC=CCC=CCC (centres unmarked) [TGM3A]', '%', 10),
  ('CCCCCC=CCC=CCCCCCCC(O)C(=O)OCC(COC(=O)C(O)CCCCCCC=CCC=CCCCCC)OC(=O)C(O)CCCCCCC=CCC=CCCCCC (centres unmarked) [TGM2]', '%', 11);

---

Property: IC50; scope: individual molecules
Tested on: SF767 (glioma)
Assay: growth inhibition of human tumour cells, 72 h incubation
Assay type: cell-based
Conditions: 72 hours of incubation
Description: On the one hand, human cells of different types of cancer were used. The cells were incubated at 37° C. and 5% of CO2 in air, in culture medium RPMI1640 or DMEM with bovine foetal serum (10%) and other supplements and in the presence or absence of the triglycerides of the present invention at different concentrations during 72 hours. […]
Observed Property: IC50

INSERT INTO results (molecule, result) VALUES
  ('CCC=CCC=CCC=CCC=CCC=CCCC(O)C(=O)OCC(COC(=O)C(O)CCC=CCC=CCC=CCC=CCC=CCC)OC(=O)C(O)CCC=CCC=CCC=CCC=CCC=CCC (stereo not shown)', '26 µM'),
  ('CCCCCCCCC=CCCCCCCC(O)C(=O)OCC(COC(=O)C(O)CCCCCCC=CCCCCCCCC)OC(=O)C(O)CCCCCCC=CCCCCCCCC (stereo not shown)', '282 µM'),
  ('CCCCCC=CCC=CCC=CCC=CCCC(O)C(=O)OCC(COC(=O)C(O)CCC=CCC=CCC=CCC=CCCCCC)OC(=O)C(O)CCC=CCC=CCC=CCC=CCCCCC (stereo not shown)', '21 µM'),
  ('CCCCCC=CCC=CCC=CCCCC(O)C(=O)OCC(COC(=O)C(O)CCCC=CCC=CCC=CCCCCC)OC(=O)C(O)CCCC=CCC=CCC=CCCCCC (stereo not shown)', '46 µM'),
  ('CCC=CCC=CCC=CCC=CCC=CCC=CCC(O)C(=O)OCC(COC(=O)C(O)CC=CCC=CCC=CCC=CCC=CCC=CCC)OC(=O)C(O)CC=CCC=CCC=CCC=CCC=CCC=CCC (stereo not shown)', '41 µM'),
  ('CCCCCC=CCC=CCCCCCCC(O)C(=O)OCC(COC(=O)C(O)CCCCCCC=CCC=CCCCCC)OC(=O)C(O)CCCCCCC=CCC=CCCCCC (stereo not shown)', '31 µM'),
  ('CCC=CCC=CCC=CCCCCCCC(O)C(=O)OCC(COC(=O)C(O)CCCCCCC=CCC=CCC=CCC)OC(=O)C(O)CCCCCCC=CCC=CCC=CCC (stereo not shown)', '57 µM');

---

System: NCI1975D (lung)
Assay: growth inhibition of human tumour cells, 72 h incubation
Format: cell-based
Conditions: 72 hours of incubation
Observed Property: IC50 (µM)

INSERT INTO results (molecule, observed_property, measurement_units, readout_number) VALUES
  ('CCC=CCC=CCC=CCCCCCCC(O)C(=O)OCC(COC(=O)C(O)CCCCCCC=CCC=CCC=CCC)OC(=O)C(O)CCCCCCC=CCC=CCC=CCC (stereo not drawn) [TGM3A]', 'IC50', 'µM', 64),
  ('CCCCCC=CCC=CCCCCCCC(O)C(=O)OCC(COC(=O)C(O)CCCCCCC=CCC=CCCCCC)OC(=O)C(O)CCCCCCC=CCC=CCCCCC (stereo not drawn) [TGM2]', 'IC50', 'µM', 54),
  ('CCCCCC=CCC=CCC=CCC=CCCC(O)C(=O)OCC(COC(=O)C(O)CCC=CCC=CCC=CCC=CCCCCC)OC(=O)C(O)CCC=CCC=CCC=CCC=CCCCCC (stereo not drawn) [TGM4]', 'IC50', 'µM', 10),
  ('CCC=CCC=CCC=CCC=CCC=CCC=CCC(O)C(=O)OCC(COC(=O)C(O)CC=CCC=CCC=CCC=CCC=CCC=CCC)OC(=O)C(O)CC=CCC=CCC=CCC=CCC=CCC=CCC (stereo not drawn) [TGM6]', 'IC50', 'µM', 21),
  ('CCC=CCC=CCC=CCC=CCC=CCCC(O)C(=O)OCC(COC(=O)C(O)CCC=CCC=CCC=CCC=CCC=CCC)OC(=O)C(O)CCC=CCC=CCC=CCC=CCC=CCC (stereo not drawn) [TGM5]', 'IC50', 'µM', 14),
  ('CCCCCCCCC=CCCCCCCC(O)C(=O)OCC(COC(=O)C(O)CCCCCCC=CCCCCCCCC)OC(=O)C(O)CCCCCCC=CCCCCCCCC (stereo not drawn) [TGM1]', 'IC50', 'µM', 292);
